Provide the recorded IC50 for the entries that follow.
# target desc: TANK-2 enzyme (Homo sapiens)
# Construct: made in house
# Sequence (Q9H2K2 whole entry): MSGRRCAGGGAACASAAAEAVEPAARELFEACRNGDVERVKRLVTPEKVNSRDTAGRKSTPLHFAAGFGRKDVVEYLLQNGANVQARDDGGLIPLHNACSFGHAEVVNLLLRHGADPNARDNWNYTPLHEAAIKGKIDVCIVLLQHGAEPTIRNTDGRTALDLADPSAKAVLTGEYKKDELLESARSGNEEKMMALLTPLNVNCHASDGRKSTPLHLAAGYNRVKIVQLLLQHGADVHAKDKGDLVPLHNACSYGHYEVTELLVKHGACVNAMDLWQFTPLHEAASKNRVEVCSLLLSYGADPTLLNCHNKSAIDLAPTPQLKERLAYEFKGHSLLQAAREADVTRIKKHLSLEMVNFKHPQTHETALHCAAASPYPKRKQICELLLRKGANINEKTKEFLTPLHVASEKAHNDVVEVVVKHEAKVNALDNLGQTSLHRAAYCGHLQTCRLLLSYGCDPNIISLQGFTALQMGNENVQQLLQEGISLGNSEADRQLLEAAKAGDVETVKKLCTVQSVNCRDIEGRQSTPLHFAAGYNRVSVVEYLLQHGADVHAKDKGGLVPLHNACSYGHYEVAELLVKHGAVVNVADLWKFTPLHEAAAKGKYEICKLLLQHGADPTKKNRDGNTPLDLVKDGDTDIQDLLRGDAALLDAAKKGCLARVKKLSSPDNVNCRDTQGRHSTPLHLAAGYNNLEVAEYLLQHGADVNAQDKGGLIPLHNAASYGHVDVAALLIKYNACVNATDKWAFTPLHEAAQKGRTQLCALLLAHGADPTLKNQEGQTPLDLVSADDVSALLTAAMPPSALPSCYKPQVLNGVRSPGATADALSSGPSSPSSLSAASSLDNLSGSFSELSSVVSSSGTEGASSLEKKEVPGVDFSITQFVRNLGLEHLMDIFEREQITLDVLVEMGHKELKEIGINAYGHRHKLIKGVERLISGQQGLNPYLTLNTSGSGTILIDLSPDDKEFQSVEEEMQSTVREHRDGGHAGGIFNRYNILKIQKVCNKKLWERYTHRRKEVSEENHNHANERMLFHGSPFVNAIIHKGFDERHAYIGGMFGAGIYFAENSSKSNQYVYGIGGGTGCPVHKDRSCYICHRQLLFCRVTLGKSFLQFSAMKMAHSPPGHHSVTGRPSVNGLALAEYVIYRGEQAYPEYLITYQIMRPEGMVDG
# experiment description: In vitro Scintillation Proximity Assay (SPA) for TANK-2 inhibitory activity
# Assay type: biochemical
# run parameters: read-out: in vitro SPA assay TANK-2 pIC50 (converted)
The reply should read as a number followed by its unit.

For each entry beneath this line, provide reported IC50.
1. CCc1cc2ccc(C(C)(C#N)CN3CCc4ccccc4C3)cc2[nH]c1=O (stereo not shown) [Compound 376]
2. CCc1cc2ccc(C(C)(C#N)Cc3cc(C)cc(C#N)c3)cc2[nH]c1=O (stereo not shown) [Compound 174]
3. CCc1cc2ccc(C(C)(C#N)Cc3cccc(C(=O)OC)c3)cc2[nH]c1=O (stereo not shown) [Compound 12]
4. CCc1cc2ccc(C(C)(C#N)CC3COc4ccccc4O3)cc2[nH]c1=O (single isomer, unassigned) [Compound 48]

1: 0.2 µM; 2: 0.2 µM; 3: 0.1 µM; 4: 0.2 µM

---

Provide the recorded log10 IC50 for the entries that follow.
# target desc: Human PARP-1 enzyme (Homo sapiens, UniProt P09874)
# Construct: purchased Trevigen
# Sequence (P09874 whole entry): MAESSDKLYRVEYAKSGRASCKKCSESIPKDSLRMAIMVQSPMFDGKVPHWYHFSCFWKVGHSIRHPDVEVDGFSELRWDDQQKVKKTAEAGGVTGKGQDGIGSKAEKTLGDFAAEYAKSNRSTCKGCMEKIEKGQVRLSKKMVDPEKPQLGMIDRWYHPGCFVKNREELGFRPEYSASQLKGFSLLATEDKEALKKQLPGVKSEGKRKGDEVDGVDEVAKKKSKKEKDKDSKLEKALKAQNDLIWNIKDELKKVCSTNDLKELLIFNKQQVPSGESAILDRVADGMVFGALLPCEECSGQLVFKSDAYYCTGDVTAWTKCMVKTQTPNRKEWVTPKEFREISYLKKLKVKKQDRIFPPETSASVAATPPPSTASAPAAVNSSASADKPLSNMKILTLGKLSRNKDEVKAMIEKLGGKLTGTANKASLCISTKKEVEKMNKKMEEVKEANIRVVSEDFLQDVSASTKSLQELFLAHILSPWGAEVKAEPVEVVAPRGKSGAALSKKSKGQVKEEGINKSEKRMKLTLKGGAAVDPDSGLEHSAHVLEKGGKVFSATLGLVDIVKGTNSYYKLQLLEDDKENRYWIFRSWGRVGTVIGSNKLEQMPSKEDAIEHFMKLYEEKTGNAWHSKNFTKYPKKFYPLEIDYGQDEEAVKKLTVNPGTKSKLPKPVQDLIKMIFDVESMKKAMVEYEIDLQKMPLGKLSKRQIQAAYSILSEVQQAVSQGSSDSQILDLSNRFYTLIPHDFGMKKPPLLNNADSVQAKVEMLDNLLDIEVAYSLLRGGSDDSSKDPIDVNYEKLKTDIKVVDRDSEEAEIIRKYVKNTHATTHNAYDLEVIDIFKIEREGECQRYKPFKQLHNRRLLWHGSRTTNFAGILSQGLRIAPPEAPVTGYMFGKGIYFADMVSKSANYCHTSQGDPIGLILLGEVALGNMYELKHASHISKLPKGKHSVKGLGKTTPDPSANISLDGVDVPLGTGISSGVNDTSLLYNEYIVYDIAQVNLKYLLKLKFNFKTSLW
# experiment description: In vitro Scintillation Proximity Assay (SPA) for PARP-1 inhibitory activity
# Format: biochemical
# run parameters: read-out: in vitro SPA assay PARP-1 pIC50 (converted)
# Method: Compounds of the present invention were tested in an in vitro assay based on SPA technology (proprietary to GE healthcare). […] Histones (type II-A, supplier: Sigma) were biotinylated using the biotinylation kit of Amersham and stored aliquoted at −20° C. […] The beads were sedimented by centrifugation (10 min, 800 rpm). and plates transferred to a TopCountNXT™ (Packard) for scintillation counting, values were expressed as counts per minute (cpm). […]
Values below are the log10 of the recorded IC50, with nM as the unit.

molecule	log10 IC50
CCc1cc2ccc([C@@](C)(C#N)CN(C)Cc3ccc(C#N)cc3)cc2[nH]c1=O (single isomer, unassigned) [Compound 253]	2.00
CCc1cc2ccc(C(C)(C#N)CC#Cc3cccc(F)c3)cc2[nH]c1=O (stereo not drawn) [Compound 184]	2.00
CCCn1ccnc1CC(C)(C#N)c1ccc2cc(CC)c(=O)[nH]c2c1 (stereo not drawn) [Compound 335]	2.40

For each entry beneath this line, provide reported log10 IC50.
1. CCc1cc2ccc(C(C)(C#N)Cc3ccc(Cl)c(C(F)(F)F)c3)cc2[nH]c1=O (stereo not drawn) [Compound 82]
2. CCc1cc2ccc(C(C)(C#N)Cc3cccc(OCc4ccccc4)c3)cc2[nH]c1=O (stereo not drawn) [Compound 23]
3. CCc1cc2ccc([C@@](C)(C#N)Cc3cccc(N(C)C)c3)cc2[nH]c1=O (single isomer, unassigned) [Compound 258]
4. CCc1cc2ccc(C(C)(C#N)Cc3nc(C#N)cc(OC)n3)cc2[nH]c1=O (stereo not drawn) [Compound 313]
5. CCc1cc2ccc(C(C)(C#N)Cc3cccc(OCCOC)c3)cc2[nH]c1=O (stereo not drawn) [Compound 24]
6. CCc1cc2ccc(C(C)(C#N)CN(C)Cc3ccc(C#N)cc3)cc2[nH]c1=O (stereo not drawn) [Compound 300]

3.60
3.10
1.70
2.00
2.80
2.20

For each entry beneath this line, provide reported log10 IC50.
1. CCc1cc2ccc(C(C)(C#N)Cc3cccc(COC)n3)cc2[nH]c1=O (stereo not drawn) [Compound 216]
2. CCc1cc2ccc(C(C)(C#N)Cc3ccc4c(c3)OC(F)(F)O4)cc2[nH]c1=O (stereo not drawn) [Compound 346]
3. CCc1cc2ccc(C(C)(C#N)Cc3ccc(F)cc3F)cc2[nH]c1=O (stereo not drawn) [Compound 137]
4. CCc1cc2ccc(C(C#N)(CC)Cc3nc(C#N)cc(OC)n3)cc2[nH]c1=O (stereo not drawn) [Compound 316]
5. CCc1cc2ccc(C(C)(C#N)Cc3ccc(Cl)nc3OC)cc2[nH]c1=O (stereo not drawn) [Compound 225]
6. CCc1cc2ccc([C@](C)(C#N)[C@@H](C)c3ccccc3)cc2[nH]c1=O [Compound 199]
7. CCc1cc2ccc(C(C)(C#N)Cc3cccc(OCCO)c3)cc2[nH]c1=O (stereo not drawn) [Compound 262]

1. 2.60
2. 1.90
3. 3.10
4. 1.60
5. 1.60
6. 1.90
7. 1.90

For each entry beneath this line, provide reported log10 IC50.
1. CCc1cc2ccc(C(C)(C#N)Cc3cc(Br)cc4c3OCC4)cc2[nH]c1=O (stereo not drawn) [Compound 378]
2. CCc1cc2ccc(C(C)(C#N)Cc3cc(Cl)ccc3OC)cc2[nH]c1=O (stereo not drawn) [Compound 80]
3. CCc1cc2ccc(C(C)(C#N)Cc3c(Cl)cccc3Cl)cc2[nH]c1=O (stereo not drawn) [Compound 135]
4. CCc1cc2ccc(C(C)(C#N)Cc3c(F)c(F)c(F)c(F)c3F)cc2[nH]c1=O (stereo not drawn) [Compound 116]
5. CCc1cc2ccc(C(C)(C#N)CC3CCc4ccccc4O3)cc2[nH]c1=O (stereo not drawn) [Compound 399]
6. CCc1cc2ccc(C(C)(C#N)CCOc3cccc4c3OCCO4)cc2[nH]c1=O (stereo not drawn) [Compound 163]
7. Cc1cc2ccc(C(C)(C#N)Cc3ccccc3)cc2[nH]c1=O (stereo not drawn) [Compound 76]

1. 1.90
2. 3.00
3. 3.00
4. 3.00
5. 2.50
6. 3.10
7. 3.20

API: value(readout= log10 IC50, system= Human PARP-1 enzyme (Homo sapiens, UniProt P09874), query= CCc1cc2ccc(C(C)(C#N)CCOc3nccc(OC)n3)cc2[nH]c1=O (stereo not drawn) [Compound 223] )
1.70
